biological target: NAD-dependent protein deacylase sirtuin-6 (Homo sapiens, UniProt Q8N6T7); assay: Activation of N-terminal his-tagged human SIRT6 expressed in Escherichia coli M15 [pREP4] assessed as increase in peptide demyristoylation incubated for 120 mins using Ac-EALPKK(Myr)-AMC substrate by FDL assay relative to control
Sequence (Q8N6T7 whole entry): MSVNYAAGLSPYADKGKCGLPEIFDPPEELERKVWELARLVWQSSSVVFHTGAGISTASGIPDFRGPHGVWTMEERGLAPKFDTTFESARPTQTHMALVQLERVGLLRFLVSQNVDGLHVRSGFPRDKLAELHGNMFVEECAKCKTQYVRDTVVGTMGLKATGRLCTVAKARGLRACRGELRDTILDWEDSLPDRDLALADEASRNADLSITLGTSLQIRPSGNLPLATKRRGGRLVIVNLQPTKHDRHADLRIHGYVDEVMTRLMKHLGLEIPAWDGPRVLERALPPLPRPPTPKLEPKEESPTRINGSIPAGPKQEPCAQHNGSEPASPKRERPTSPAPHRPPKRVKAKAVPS
Please note: EC1.5 exactly at 6 µM is Not satisfied. Only values below 6 µM get Satisfied.

>  <Molecule>
COc1ccc(-c2cc(C(=O)NCc3ccc(Cl)c(Cl)c3)c3ccccc3n2)cc1OC

>  <Class Label>
Not satisfied

$$$$
>  <Molecule>
O=C(Nc1cccc(Cl)c1Cl)c1cc(-c2cc3ccccc3o2)nc2ccccc12

>  <Class Label>
Not satisfied

$$$$
>  <Molecule>
COc1ccc(-c2cc(C(=O)Nc3cccc(Cl)c3C)c3ccccc3n2)cc1OC

>  <Class Label>
Not satisfied

$$$$
>  <Molecule>
O=C(Nc1cccc(F)c1)c1cc(-c2cc3ccccc3o2)nc2ccccc12

>  <Class Label>
Satisfied

$$$$
>  <Molecule>
COc1ccc(-c2cc(C(=O)Nc3cc(C(F)(F)F)cc(C(F)(F)F)c3)c3ccccc3n2)cc1OC

>  <Class Label>
Not satisfied

$$$$
>  <Molecule>
COc1ccccc1C(=O)Nc1cc2c(cc1N1CCCCC1)n(C)c(=O)n2C

>  <Class Label>
Not satisfied

$$$$
>  <Molecule>
O=C(Nc1ccc(C(F)(F)F)cc1Cl)c1cc(-c2cc3ccccc3o2)nc2ccccc12

>  <Class Label>
Satisfied

$$$$
>  <Molecule>
CCOc1ccc(NC(=O)c2cc(-c3ccc(OC)c(OC)c3)nc3ccccc23)cc1

>  <Class Label>
Not satisfied

$$$$
>  <Molecule>
Cc1ccc(C)c(NC(=O)c2cc(-c3cc4ccccc4o3)nc3ccccc23)c1

>  <Class Label>
Satisfied

$$$$
>  <Molecule>
COc1ccc(-c2cc(C(=O)Nc3ccc(C(F)(F)F)cc3Cl)c3ccccc3n2)cc1OC

>  <Class Label>
Not satisfied

$$$$
>  <Molecule>
COc1ccc(-c2cc(C(=O)Nc3cc(C(F)(F)F)ccc3Cl)c3ccccc3n2)cc1OC

>  <Class Label>
Satisfied

$$$$
>  <Molecule>
O=C(Nc1cc(C(F)(F)F)ccc1Cl)c1cc(-c2ccc3c(c2)OCO3)nc2ccccc12

>  <Class Label>
Not satisfied

$$$$
>  <Molecule>
COC(=O)c1c2c(c3ccccc3c1O)OC(C)(C)C=C2

>  <Class Label>
Not satisfied

$$$$
>  <Molecule>
O=C(Nc1cc(C(F)(F)F)ccc1Cl)c1cc(-c2ccc3c(c2)OCCO3)nc2ccccc12

>  <Class Label>
Not satisfied

$$$$
>  <Molecule>
COc1ccc(-c2cc(C(=O)Nc3ccc(Cl)c(Cl)c3)c3ccccc3n2)cc1OC

>  <Class Label>
Not satisfied

$$$$
>  <Molecule>
Cc1c(Cl)cccc1NC(=O)c1cc(-c2cc3ccccc3o2)nc2ccccc12

>  <Class Label>
Not satisfied

$$$$
>  <Molecule>
O=C(Nc1cc(C(F)(F)F)cc(C(F)(F)F)c1)c1cc(-c2cc3ccccc3o2)nc2ccccc12

>  <Class Label>
Satisfied

$$$$
>  <Molecule>
COc1ccc(-c2cc(C(=O)NCc3ccc(C)cc3)c3ccccc3n2)cc1OC

>  <Class Label>
Not satisfied

$$$$
>  <Molecule>
Cc1cc(Nc2cc(CN3CCOCC3)c3nc(C)c(Cc4ccc(Cl)cc4F)n3n2)n[nH]1

>  <Class Label>
Not satisfied

$$$$
>  <Molecule>
COc1ccc(-c2cc(C(=O)Nc3c(C)cc(C)cc3C)c3ccccc3n2)cc1OC

>  <Class Label>
Satisfied

$$$$
>  <Molecule>
Cc1cc(C)c(NC(=O)c2cc(-c3cc4ccccc4o3)nc3ccccc23)c(C)c1

>  <Class Label>
Satisfied

$$$$
>  <Molecule>
COc1ccc(-c2cc(C(=O)Nc3cc(C(F)(F)F)ccc3Cl)c3ccccc3n2)cc1

>  <Class Label>
Not satisfied

$$$$
>  <Molecule>
O=C(NC(c1ccccc1)c1ccccn1)c1cc(-c2cc3ccccc3o2)nc2ccccc12 (configuration not stated)

>  <Class Label>
Not satisfied

$$$$
>  <Molecule>
O=C(NCc1ccc(F)cc1)c1cc(-c2cc3ccccc3o2)nc2ccccc12

>  <Class Label>
Satisfied

$$$$
>  <Molecule>
O=C(Nc1ccc(C(F)(F)F)cc1)c1cc(-c2cc3ccccc3o2)nc2ccccc12

>  <Class Label>
Satisfied

$$$$
>  <Molecule>
COc1ccc(-c2cc(C(=O)Nc3cccc4ccccc34)c3ccccc3n2)cc1OC

>  <Class Label>
Not satisfied

$$$$
>  <Molecule>
Cc1ccc(-c2cc(C(=O)Nc3cc(C(F)(F)F)ccc3Cl)c3ccccc3n2)o1

>  <Class Label>
Not satisfied

$$$$
>  <Molecule>
COc1ccc(-c2cc(C(=O)Nc3ccc(Oc4ccccc4)cc3)c3ccccc3n2)cc1OC

>  <Class Label>
Not satisfied

$$$$
>  <Molecule>
Cc1ccc(CNC(=O)c2cc(-c3cc4ccccc4o3)nc3ccccc23)cc1

>  <Class Label>
Not satisfied

$$$$
>  <Molecule>
COc1ccc(-c2cc(C(=O)Nc3cc(C)ccc3C)c3ccccc3n2)cc1OC

>  <Class Label>
Satisfied

$$$$
>  <Molecule>
COc1ccc(-c2cc(C(=O)NCc3ccc(F)cc3)c3ccccc3n2)cc1OC

>  <Class Label>
Not satisfied

$$$$
>  <Molecule>
O=C(Nc1cc(C(F)(F)F)ccc1Cl)c1cc(-c2cc3ccccc3o2)nc2ccccc12

>  <Class Label>
Satisfied

$$$$

###

test: Oral bioavailability in Sprague-Dawley rat at 10 mg/kg after 0.083 to 24 hrs by LC-MS/MS analysis; type: ADME, organism-based; details: in vivo
Assay Endpoint: bioavailability (%)

>  <Smiles Representation>
O=C(NC(c1ccccc1)c1ccccc1)c1cc(-c2cc3ccccc3o2)nc2ccccc12

>  <Assay Endpoint>
bioavailability

>  <Uom>
%

>  <Test Value>
4.24

$$$$

###

assay: Cmax in Sprague-Dawley rat at 10 mg/kg, po after 0.083 to 24 hrs by LC-MS/MS analysis; type: ADME, organism-based; set-up: dose 10 mg/kg, route oral; settings: in vivo

>  <Smiles Representation>
O=C(NC(c1ccccc1)c1ccccc1)c1cc(-c2cc3ccccc3o2)nc2ccccc12

>  <Cmax [ng/mL]>
98.5

$$$$

###

Measured Activity, listed per entry for reference.
molecular target: NAD-dependent protein deacylase sirtuin-6 (Homo sapiens, UniProt Q8N6T7); test: Activation of N-terminal his-tagged human SIRT6 expressed in Escherichia coli M15 [pREP4] assessed as increase in peptide demyristoylation at 20 uM incubated for 120 mins using Ac-EALPKK(Myr)-AMC substrate by FDL assay relative to control

>  <Smiles Representation>
O=C(NC(c1ccccc1)c1ccccc1)c1cc(-c2cc3ccccc3o2)nc2ccccc12

>  <Target Or System>
NAD-dependent protein deacylase sirtuin-6 (Homo sapiens, UniProt Q8N6T7)

>  <Activity, %>
1230

$$$$
>  <Smiles Representation>
O=C(Nc1cc(C(F)(F)F)ccc1Cl)c1cc(C2CCCC2)nc2ccccc12

>  <Target Or System>
NAD-dependent protein deacylase sirtuin-6 (Homo sapiens, UniProt Q8N6T7)

>  <Activity, %>
76.4

$$$$
>  <Smiles Representation>
COc1ccc(-c2cc(C(=O)NC(c3ccccc3)c3ccccc3)c3ccccc3n2)cc1OC

>  <Target Or System>
NAD-dependent protein deacylase sirtuin-6 (Homo sapiens, UniProt Q8N6T7)

>  <Activity, %>
276

$$$$
>  <Smiles Representation>
COc1ccc(-c2cc(C(=O)Nc3ccc(F)cc3)c3ccccc3n2)cc1OC

>  <Target Or System>
NAD-dependent protein deacylase sirtuin-6 (Homo sapiens, UniProt Q8N6T7)

>  <Activity, %>
104

$$$$
>  <Smiles Representation>
COc1ccc(-c2cc(C(=O)Nc3ccc(S(N)(=O)=O)cc3)c3ccccc3n2)cc1OC

>  <Target Or System>
NAD-dependent protein deacylase sirtuin-6 (Homo sapiens, UniProt Q8N6T7)

>  <Activity, %>
131

$$$$
>  <Smiles Representation>
COC(=O)c1c(-c2ccc(C)cc2)csc1NC(=O)c1cc(-c2ccc(OC)c(OC)c2)nc2ccccc12

>  <Target Or System>
NAD-dependent protein deacylase sirtuin-6 (Homo sapiens, UniProt Q8N6T7)

>  <Activity, %>
82.9

$$$$
>  <Smiles Representation>
COc1ccc(-c2cc(C(=O)Nc3ccc(Cl)c(Cl)c3)c3ccccc3n2)cc1OC

>  <Target Or System>
NAD-dependent protein deacylase sirtuin-6 (Homo sapiens, UniProt Q8N6T7)

>  <Activity, %>
148

$$$$
>  <Smiles Representation>
COc1ccc(-c2cc(C(=O)Nc3ccc(F)c(Cl)c3)c3ccccc3n2)cc1OC

>  <Target Or System>
NAD-dependent protein deacylase sirtuin-6 (Homo sapiens, UniProt Q8N6T7)

>  <Activity, %>
108

$$$$
>  <Smiles Representation>
COc1ccc(-c2cc(C(=O)NCc3ccccc3)c3ccccc3n2)cc1OC

>  <Target Or System>
NAD-dependent protein deacylase sirtuin-6 (Homo sapiens, UniProt Q8N6T7)

>  <Activity, %>
107

$$$$
>  <Smiles Representation>
COc1ccc(-c2cc(C(=O)Nc3nc4ccc(S(C)(=O)=O)cc4s3)c3ccccc3n2)cc1OC

>  <Target Or System>
NAD-dependent protein deacylase sirtuin-6 (Homo sapiens, UniProt Q8N6T7)

>  <Activity, %>
83.4

$$$$
>  <Smiles Representation>
COc1ccc(-c2cc(C(=O)NCc3ccc(F)cc3)c3ccccc3n2)cc1OC

>  <Target Or System>
NAD-dependent protein deacylase sirtuin-6 (Homo sapiens, UniProt Q8N6T7)

>  <Activity, %>
168

$$$$
>  <Smiles Representation>
O=C(Nc1cc(C(F)(F)F)ccc1Cl)c1cc(-c2ccc3c(c2)OCO3)nc2ccccc12

>  <Target Or System>
NAD-dependent protein deacylase sirtuin-6 (Homo sapiens, UniProt Q8N6T7)

>  <Activity, %>
228

$$$$
>  <Smiles Representation>
O=C(Nc1cccc2ccccc12)c1cc(-c2cc3ccccc3o2)nc2ccccc12

>  <Target Or System>
NAD-dependent protein deacylase sirtuin-6 (Homo sapiens, UniProt Q8N6T7)

>  <Activity, %>
119

$$$$
>  <Smiles Representation>
Cc1ccc(-c2cc(C(=O)Nc3cc(C(F)(F)F)ccc3Cl)c3ccccc3n2)o1

>  <Target Or System>
NAD-dependent protein deacylase sirtuin-6 (Homo sapiens, UniProt Q8N6T7)

>  <Activity, %>
184

$$$$
>  <Smiles Representation>
O=C(NCc1ccc(Cl)c(Cl)c1)c1cc(-c2cc3ccccc3o2)nc2ccccc12

>  <Target Or System>
NAD-dependent protein deacylase sirtuin-6 (Homo sapiens, UniProt Q8N6T7)

>  <Activity, %>
314

$$$$
>  <Smiles Representation>
CCOC(=O)c1sc(NC(=O)c2cc(-c3ccc(OC)c(OC)c3)nc3ccccc23)nc1C

>  <Target Or System>
NAD-dependent protein deacylase sirtuin-6 (Homo sapiens, UniProt Q8N6T7)

>  <Activity, %>
90.3

$$$$
>  <Smiles Representation>
O=C(NCc1ccc(F)cc1)c1cc(-c2cc3ccccc3o2)nc2ccccc12

>  <Target Or System>
NAD-dependent protein deacylase sirtuin-6 (Homo sapiens, UniProt Q8N6T7)

>  <Activity, %>
482

$$$$
>  <Smiles Representation>
COc1ccc(-c2cc(C(=O)Nc3cc(C(F)(F)F)ccc3Cl)c3ccccc3n2)cc1OC

>  <Target Or System>
NAD-dependent protein deacylase sirtuin-6 (Homo sapiens, UniProt Q8N6T7)

>  <Activity, %>
365

$$$$
>  <Smiles Representation>
CCCNC(=O)c1cc(-c2ccc(OC)c(OC)c2)nc2ccccc12

>  <Target Or System>
NAD-dependent protein deacylase sirtuin-6 (Homo sapiens, UniProt Q8N6T7)

>  <Activity, %>
99

$$$$
>  <Smiles Representation>
COc1ccc(-c2cc(C(=O)Nc3cccc(Cl)c3C)c3ccccc3n2)cc1OC

>  <Target Or System>
NAD-dependent protein deacylase sirtuin-6 (Homo sapiens, UniProt Q8N6T7)

>  <Activity, %>
199

$$$$

The origin of these recorded values is ChEMBL document CHEMBL4622973.
